Target or system D(2) dopamine receptor (Homo sapiens, UniProt P14416); metric log10 Ki; compiled from varied reports.
recorded metric: log10 Ki (log10 of the value in µM)

molecule | recorded metric | reported value
CSc1ccccc1N1CCN(CCCCCC(=O)NCc2ccc(OS(C)(=O)=O)cc2)CC1 | log10 Ki | -1.52
Cc1c(-c2ccccc2)n[nH]c1C1CCN(Cc2ccccc2)CC1 | log10 Ki | -1.05
CCCCCCN(CCc1ccccc1)CCc1cccc(O)c1 | log10 Ki | -0.08
CN[C@H]1c2c(ccc3c2ccn3S(=O)(=O)c2ccccc2)[C@@H]1CCO (relative stereo) | log10 Ki | 1.20
O=S(=O)(NC1CCN(CCOc2cccc(F)c2)C1)c1cccs1 (configuration not stated) | log10 Ki | -0.14
CN1CCc2ccccc2Cc2[nH]c3ccccc3c2C[C@@H]1CO | log10 Ki | -0.57
O=S1(=O)c2cccc3cccc(c23)N1CCCCCCN1CCN(c2cccc(Cl)c2)CC1 | log10 Ki | -0.92
CC(C)COC(=O)N[C@H]1CC[C@H](CCN2CCc3ccccc3C2)CC1 | log10 Ki | 0.72
O=C(NC/C=C/CN1CCN(c2cccc(Cl)c2Cl)CC1)c1ccc(-c2ccccn2)cc1 | log10 Ki | -1.13
